- target or test system: T1, recombinant human MOG protein (human, UniProt Q16653 30-154, limits assumed)
- T1 construct: Bought recombinant protein; also called HMOG
- T1 sequence (looked up): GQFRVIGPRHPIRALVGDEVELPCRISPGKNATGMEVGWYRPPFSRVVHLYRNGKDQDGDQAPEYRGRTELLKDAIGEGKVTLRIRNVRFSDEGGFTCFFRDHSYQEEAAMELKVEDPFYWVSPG
- assay name: phage-scFv ELISA on coated recombinant human MOG (0.5 µg/well), anti-M13 HRP, OD450 over BSA background
measured parameter: ratio OD on target/OD bdf (ratio)
The reply should contain only the number, in ratio.

Sure, the documented ratio OD on target/OD bdf for anti-MOG MO3J-43 antibody (scFv, V domains shown) VH: EVQLVESGGGLVKPGGSLRLSCAASGFTFSDYYMSWIRQAPGKGLEWVSYISSSGNTIYYADSVKGRFTISRDNAKNSLYLQMNSLRAEDTAVYYCAKDSPVPTVWGQGTLVTVSS VL: QSVVTQPPSVSGAPGQRVSISCTGGSSNIGADYDVHWYQQLPGTAPKLLIYGNNNRPSGVPDRFSGSKSGTSASLAISGLQPEDEAVYYCQSYDSGLRSSVFGGGTKLTVL is 20.8
